Target: T1, Lsb4, P32793
T1 sequence (P32793 402-468, looked up): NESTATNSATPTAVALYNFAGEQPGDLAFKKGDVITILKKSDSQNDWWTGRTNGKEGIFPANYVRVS
Test: SPOT array
Settings: median of control spots 397

# binder, SPOT intensity
rows = [
    ("GAGERPRLVPRPINV", 105),
    ("TPRLSLPRLPNKHHW", 0),
    ("DDEDVPPQLPTRTKS", 897),
    ("NIKVLLNPKLGKPVK", 1),
    ("RKNRAPPQRPRFNRD", 75),
    ("YRRKSIPFAPHQITA", 2),
    ("SRQAIPPPVPNRPGG", 373),
    ("IRMPSNPALPKKLLN", 56),
    ("PVLPPPRSPNRPTLS", 325),
    ("SKSRLLIELPEGFFT", 0),
    ("AERNYAPRLPRRETS", 137),
    ("LYEAMPPTLPHRDWK", 1),
    ("GSKSGPPPRPKKPST", 2),
    ("IPSRPAPKPPSSASA", 21),
    ("IFLRISINFPLNYPN", 14),
    ("KLSRGRYGLPLSSRP", 0),
    ("GDHPKGPPPPPPPPD", 0),
    ("RRSKSLPTTPGIRSG", 2),
    ("APERAVPILPPRNNV", 1220),
    ("LKRITSPPLPPRADS", 700),
    ("VDFTLPPPPPPPGLD", 0),
    ("PPPPPPPPPPPLPQS", 0),
    ("AAAPKHAPPPVPNET", 0),
    ("ATNVPVAPPPPPASL", 0),
    ("LYKRKPILLPDPKPL", 0),
    ("KWVRRPKLMTPLTFS", 2),
    ("NAGIRPKFILALNDE", 0),
    ("PPIPIVPSSPAPPLP", 0),
    ("VPPVPLPFGIPPFPM", 16),
    ("NPNRRAPRRPLSTQH", 18),
]
